System: SF-295
Test: NCI tumour cell line growth inhibition, 48 h
Activity calls are given as the source filed them. Rule as the data show it: active = GI50 up to about 1.1 µM and inactive = higher.
Each entry below carries its reported GI50.

Guide cases for GI50, answers given:
CCOC(=O)C1=C(C)N(C2OC(COC(C)=O)C(OC(C)=O)C(OC(C)=O)C2OC(C)=O)C(=O)NC1c1ccccc1 (stereo not drawn) = > 100 µM (inactive)
CCOC(=O)c1nc(-c2ccccc2)oc1OCC = > 100 µM (inactive)

Proceeding to the next compound to report its GI50.
Give the measured GI50 of O=C1CCC(=O)N1Cc1ccccc1/N=[N+](\[O-])c1ccccc1CN1C(=O)CCC1=O .
> 100 µM (inactive)

###

System: UACC-257
Test: NCI tumour cell line growth inhibition, 48 h
Active and inactive are the calls of the source. Rule as the data show it: active = GI50 up to about 1.1 µM and inactive = higher.
Each entry below carries its reported GI50.

O=Cc1ccc(OCc2cccc(COc3ccc(/C=N\Nc4ccc([N+](=O)[O-])cc4[N+](=O)[O-])cc3)n2)cc1 = > 100 µM (inactive)
COc1ccc(CC[N+]2(C)COc3cc4oc(=O)cc(C)c4cc3C2)cc1OC (stereo not drawn) = > 100 µM (inactive)
O=C(/C=N/O)Nc1cc(Cl)c(Cl)cc1Cl = 26.6 µM (inactive)
CCC1CC(C)=CCN1S(=O)(=O)c1ccc(C)cc1 (stereo not drawn) = 25.9 µM (inactive)
O=C1[C@@H](O)[C@@H]2CCCC[C@@]23CCCN13 = > 100 µM (inactive)

Give the measured GI50 of COc1ccccc1Cn1[nH]c(=O)c2cc([N+](=O)[O-])ccc21 .
> 100 µM (inactive)

Give the measured GI50 of Cc1cn(C2CC(O)C(CO)O2)c(=O)[nH]c1=O (stereo not drawn) .
3760 µM (inactive)

Give the measured GI50 of CCOC(=O)C1(C(=O)OCC)OC(C)=NC1(C(=O)OC)C(=O)OC .
> 100 µM (inactive)

###

Each entry below carries its reported GI50.
Test system: NCI-H226
Experiment: NCI tumour cell line growth inhibition, 48 h
Calls of active or inactive are those of the source. No stated cut-off is given here; in the data, active = GI50 up to about 1.1 µM and inactive = higher.

O=[N+]([O-])c1ccc(N2N=C(c3ccc4ccccc4c3O)CC2c2ccc(Cl)cc2Cl)c([N+](=O)[O-])c1 (stereo not drawn) = 49.1 µM (inactive)
Brc1ccc(-c2nnc(-c3nn(-c4ccccc4)c4nc5ccccc5nc34)o2)cc1 = > 100 µM (inactive)
Cc1ccc(F)c2[nH]c(-c3ccccc3)cc(=O)c12 = 40.1 µM (inactive)
SC1=NC2(CCCCCC2)NN1c1ccccc1 = > 100 µM (inactive)
CCOC(=O)C(=CNc1ccc(F)c(F)c1)C(=O)OCC = > 100 µM (inactive)
S=C1CC(c2ccccc2)Sc2ccc(Cl)cc2N1 (stereo not drawn) = > 100 µM (inactive)
O=C1CCC(O)=C1O = > 100 µM (inactive)
CC(=O)OC1CC2C(C)(C)C(=O)C=CC2(C)C2CCC3(C)C(c4ccoc4)OC(=O)C4OC43C12C (stereo not drawn) = 22.2 µM (inactive)

Give the measured GI50 of O=C(NC12CC3CC(CC(C3)C1)C2)C(=O)c1c[nH]c2ccccc12 .
> 10 µM (inactive)

Give the measured GI50 of CC(=O)NC(CCCNC(=O)N(CCCl)N=O)C(=O)NCc1ccccc1 (stereo not drawn) .
> 100 µM (inactive)

Give the measured GI50 of COc1ccc(/C=N/N=C(\N)NO)c(OC)c1C .
15.2 µM (inactive)

Give the measured GI50 of CC(=O)NC1C(OC2C(CO)OC(OCC3OC(n4ccc(N)nc4=O)C(O)C3O)C(NC(C)=O)C2O)OC(CO)C(O)C1O (stereo not drawn) .
> 100 µM (inactive)

Give the measured GI50 of CSc1nc2c(c(O)c(C)c(=O)n2C2OCC(OC(C)=O)C(OC(C)=O)C2OC(C)=O)c(=O)n1C (stereo not drawn) .
> 100 µM (inactive)

###

Tested on: SF-268
Assay: NCI tumour cell line growth inhibition, 48 h
The source made the active and inactive calls. Rule as the data show it: active = GI50 up to about 1.1 µM and inactive = higher.
Your answer must be one of the following: yes (active), no (inactive)

O=C1C(Cl)N(c2ccc(Cl)cc2)C1c1c[nH]c2ccccc12 (stereo not drawn) = no
CC1=C(SC#N)S(=O)(=O)N(c2ccccc2)C(C)=C1SC#N = no
COc1cc2c(c(OC)c1OC)-c1ccc(SC)c(=O)cc1[C@@H](NCc1cccc(C#N)c1)CC2 = yes

Look up the recorded call for CC12Oc3ccc4ccccc4c3CC1Cc1c(ccc3ccccc13)O2 (stereo not drawn) in this test.
no

Look up the recorded call for COc1ccc(CCn2ccc(=O)c(O)c2C)cc1OC in this test.
no

Look up the recorded call for CC1(C)CC(=O)C2=C(C1)OC1(CC2c2ccc(Cl)cc2)CC(c2ccc(Cl)cc2)C2=C(CC(C)(C)CC2=O)O1 (stereo not drawn) in this test.
no

Look up the recorded call for CSc1cc(=O)n2c3ccccc3c3ccnc1c32 in this test.
no

Look up the recorded call for COc1c2ccoc2cc2oc(=O)ccc12 [BERGAPTEN] in this test.
no

###

Tested on: Hs-578T
Assay: NCI tumour cell line growth inhibition, 48 h
Active and inactive are the calls of the source. No stated cut-off is given here; in the data, active = GI50 up to about 1.1 µM and inactive = higher.
Your answer must be one of the following: true (active), false (inactive)

Before answering, review these 4 worked examples.
C[C@H]1CCCCC[C@@H]2CC(=O)CC2C(=O)CCC(=O)O1 (some centres not stated) = false
O=C1c2cccc3cccc(c23)C(=O)N1CCCNCCCCNCCCN1C(=O)c2cccc3cccc(c23)C1=O = true
COC(O)C12OC3CO[Si](C(C)C)(C(C)C)O[Si](C(C)C)(C(C)C)OC3C1Oc1nc(=O)ccn12 (configuration not stated) = false
COc1ccc(/C=C\c2cc(OC)c(OC)c(OC)c2)cc1OC(=O)NCCN(C)C = true

Look up the recorded call for O=C1CSC(c2cccs2)N1c1nc2cc3sc(N4C(=O)CSC4c4cccs4)nc3cc2s1 (configuration not stated) in this test.
false

Look up the recorded call for Fc1cc(C2=C[C@H](c3ccc(Cl)cc3)NC(=S)N2)c(Cl)cc1Cl in this test.
false

Look up the recorded call for CC(C)(CO)NC(=O)Nc1c(C(F)(F)F)cc(-c2ccccc2)[nH]c1=O in this test.
false

Look up the recorded call for O=c1nc2n(CCO)c(-c3ccccc3)c(-c3ccccc3)nc-2c(=O)[nH]1 in this test.
false

Look up the recorded call for O=C(c1ccccc1)N1CCN(C(=S)NC2CCCCC2)C1=S in this test.
false

Look up the recorded call for O=c1nc(N2CCNCC2)oc2cc(Cl)oc(=O)c12 in this test.
false

Look up the recorded call for O=C(/C=N/O)Nc1cc(Cl)c(Cl)cc1Cl in this test.
false

Look up the recorded call for CC1(C)CC(=O)c2c([nH]c(=S)c(C#N)c2-c2ccc(Br)cc2)C1 in this test.
false

###

Tested on: NCI-H23
Assay: NCI tumour cell line growth inhibition, 48 h
Active and inactive are the calls of the source. No stated cut-off is given here; in the data, active = GI50 up to about 1.1 µM and inactive = higher.
Attribute measured: GI50

Guide cases for GI50, answers given:
CC(C(=O)O)c1cnn(-c2ccccc2)c1-n1cccc1 (stereo not drawn) = > 100 µM (inactive)
O=C(O)C1CC2CC(=O)C1C2 (stereo not drawn) = > 100 µM (inactive)

Proceeding to the next compound to report its GI50.
Give the measured GI50 of Nc1ccc(S(=O)(=O)Nc2nnc(S(N)(=O)=O)s2)cc1 .
> 100 µM (inactive)

###

Each entry below carries its reported GI50.
Test system: NCI/ADR-RES
Experiment: NCI tumour cell line growth inhibition, 48 h
The source made the active and inactive calls. No stated cut-off is given here; in the data, active = GI50 up to about 1.1 µM and inactive = higher.

Guide cases for GI50, answers given:
C/C(=N\NC(=[Se])N1CCN(c2ccccn2)CC1)c1ccccn1 = 0.0023 µM (active)
O=[N+]([O-])c1ccc(N2N=C(c3ccc4ccccc4c3O)CC2c2ccc(Cl)cc2Cl)c([N+](=O)[O-])c1 (stereo not drawn) = 28.6 µM (inactive)
CCCN(C(=O)c1c(Cl)nnc(Cl)c1C(=O)c1cc(Cl)nnc1Cl)c1cc(Cl)nnc1Cl = 6.7 µM (inactive)
N#Cc1sc2c(c1OC(=O)c1cccs1)c(=O)n(-c1ccccc1)c(=S)n2-c1ccccc1 = 21.8 µM (inactive)
O=C1[C@@H](O)[C@@H]2CCCC[C@@]23CCCN13 = > 100 µM (inactive)

Give the measured GI50 of CSc1nncc(-c2cc3c(c(SC)n2)CCC3)n1 .
69.5 µM (inactive)

Give the measured GI50 of C#CCCOC(=O)c1ccccc1OC(C)=O .
> 100 µM (inactive)

Give the measured GI50 of NC(Cc1ccc(S(=O)(=O)O)cc1)C(=O)NC(Cc1ccc(S(=O)(=O)O)cc1)C(=O)NC(Cc1ccc(S(=O)(=O)O)cc1)C(=O)NC(Cc1ccc(S(=O)(=O)O)cc1)C(=O)O (stereo not drawn) .
> 100 µM (inactive)

###

System: OVCAR-3
Assay: NCI tumour cell line growth inhibition, 48 h
The source made the active and inactive calls. Cut-off read from the data, not from the text of the source: active = GI50 up to about 1.1 µM and inactive = higher.
Your answer must be one of the following: T for active, F for inactive

CCCCCCCCCCCCC(CC)CCCCC(=O)O (stereo unspecified) = F
O=C(CC1C(=O)Nc2ccccc2[S+]1[O-])Nc1cccc(Cl)c1 (stereo unspecified) = F
CN(C)CCNC(=O)c1ccc(Cl)c2cc3ccccc3nc12 = F
COC(=O)C(CCSc1ccccc1)C(=O)OC = F
CC(C)CC(=O)CC(O)C(Cl)(Cl)Cl (stereo unspecified) = F
NC(Cc1ccc(S(=O)(=O)O)cc1)C(=O)NC(Cc1ccc(S(=O)(=O)O)cc1)C(=O)NC(Cc1ccc(S(=O)(=O)O)cc1)C(=O)NC(Cc1ccc(S(=O)(=O)O)cc1)C(=O)O (stereo unspecified) = F

Query compound follows.
Look up the recorded call for COc1ccc(/C=N/N=C(\N)NO)c(OC)c1C in this test.
F
